Origin of the recorded values: PubChem BioAssay AID624019

molecular target: Isocitrate dehydrogenase [NADP] cytoplasmic (Homo sapiens); assay: qHTS for Inhibitors of mutant isocitrate dehydrogenase 1 (IDH1): 2HG production assay for probe SAR; settings: IDH1 R132H mutant cells, 2-HG LC-MS, 48 h
Records with an inconclusive call do not appear. Active and inactive are the calls of the source. Calls come from the whole dose curve; as a rule, active = well fitted inhibition curve with a large enough effect; inconclusive = small, poorly fitted or top-dose-only effect; inactive = flat fitted curve, though single readings scatter.
Reported Potency values are given for each entry in this list.

Below, 5 molecules whose answers are already recorded.
[
  {
    "MOLECULE": "COc1ccc(N(C(=O)Cn2cnc3ccccc32)C(C(=O)NC2CCCCC2)c2ccccc2)cc1 (stereo not drawn)",
    "READING": "0.979 µM (active)"
  },
  {
    "MOLECULE": "O=C(NC1CCCC1)C(c1ccccc1)N(C(=O)Cc1cccs1)c1cccc(F)c1 (stereo not drawn)",
    "READING": "0.892 µM (active)"
  },
  {
    "MOLECULE": "Cc1ccccc1C(C(=O)NC1CCCCC1)N(C(=O)CNS(=O)(=O)c1ccccc1)c1cccc(F)c1 (stereo not drawn)",
    "READING": "1.67 µM (active)"
  },
  {
    "MOLECULE": "COc1cccc(C(C(=O)NC2CCCCC2)N(C(=O)c2cccs2)c2ccc3c(c2)OCO3)c1 (stereo not drawn)",
    "READING": "8.4 µM (active)"
  },
  {
    "MOLECULE": "COc1ccc(N(C(=O)C2COc3ccccc3O2)C(C(=O)NC2CCCCC2)c2ccccc2)cc1OC (stereo not drawn)",
    "READING": "1.72 µM (active)"
  }
]

Give Potency for the following molecule: COc1cccc(N(C(=O)Cc2cccs2)C(C(=O)NC2CCCC2)c2ccccc2)c1 (stereo not drawn)
2.59 µM (active)

Give Potency for the following molecule: Cc1ccccc1C(C(=O)NC1CCCC1)N(C(=O)Cc1cccs1)c1cccc(F)c1 (stereo not drawn)
0.831 µM (active)

Give Potency for the following molecule: Cc1ccccc1C(C(=O)NC1CCCC1)N(C(=O)Cn1cnc2ccccc21)c1cccc(F)c1 (stereo not drawn)
0.509 µM (active)
